Test system: SF-295 CNS
Assay: NCI tumour cell line growth inhibition, 48 h
resultType: TGI

compound: OC(C/C=N/N=C/CC(O)(C(F)(F)Cl)C(F)(F)Cl)(C(F)(F)Cl)C(F)(F)Cl
assayResult: > 10 µM

compound: Cc1ccc(C(=O)NCc2ccccc2)cc1N=NN(C)C
assayResult: > 100 µM

compound: Cc1ccc(C)c(N2C(=O)C(=O)C(c3nc4ccccc4o3)/C(=N\NC(=O)c3ccccc3O)C2=O)c1 (stereo not given)
assayResult: > 100 µM

compound: O=[N+]([O-])c1ccc(Sc2c3ccccc3nc3ccccc23)cn1
assayResult: > 100 µM

compound: CCCCC1C=Cn2c(=O)oc3c(OC(C)C)c(C)c(O)c1c32 (stereo not given)
assayResult: 7.16 µM
